- test name: Pharmacokinetics in ICR mice after intravenous and intragastric administration
- Type: in vivo
- experimental conditions: male, ICR, mouse, plasma, iv, 2 mg/kg, IV 2 mg/kg, ICR mice, individual animal; read-out: Tmax
Below is a list of entries, each paired with its recorded Tmax value.

These recorded examples may help you get a feel for the data.
compound	property	assay result
COc1ncc(-c2nc3c(n2C(C)C)[C@@]2(C(=O)Nc4cc(Cl)ccc42)N(c2cccc(Cl)c2)C3=O)c(OC)n1	Tmax	4.8 min
COc1ccc(-c2nc3c(n2C(C)C)[C@@]2(C(=O)Nc4cc(Cl)ccc42)N(c2cc(Cl)ccc2C)C3=O)c(OC)c1	Tmax	4.8 min
COc1cc(OC)c(-c2nc3c(n2C(C)C)[C@@]2(C(=O)Nc4cc(Cl)ccc42)N(c2cc(Cl)ccc2C)C3=O)cn1	Tmax	30 min
COc1cc(N(C)C)ccc1-c1nc2c(n1C(C)C)[C@@]1(C(=O)Nc3cc(Cl)ccc31)N(c1cc(Cl)ccc1C)C2=O	Tmax	4.8 min

Consider the record given below.
// query Bench note: what Tmax did COc1ncc(-c2nc3c(n2C(C)C)[C@H](c2ccc(Cl)cc2)N(c2cc(Cl)cn(C)c2=O)C3=O)c(OC)n1 [HDM201, reference compound] show?
// result 4.8 min
